GI50 values for the compounds below.
tested on: K562; assay: NCI tumour cell line growth inhibition, 48 h
The source made the active and inactive calls. No stated cut-off is given here; in the data, active = GI50 up to about 1.1 µM and inactive = higher.

Ask: // fetch GI50 given entry "COc1ccc(NC(=S)Nc2cc(C)ccn2)cc1"
Result: > 100 µM (inactive)

Ask: // fetch GI50 given entry CC(C)(C)N/N=N/c1cn(C2OC(CO)C(O)C2O)c(=O)[nH]c1=O (stereo unspecified)
Result: 40.7 µM (inactive)

Ask: // fetch GI50 given entry "COC(=O)CC[C@@H](C)[C@H]1CC[C@H]2[C@@H]3CC[C@@H]4C[C@H](O)CC[C@]4(C)[C@H]3CC[C@]12C"
Result: 10.7 µM (inactive)

Ask: // fetch GI50 given entry "C=CCOCn1ccc(=O)[nH]c1=O"
Result: > 100 µM (inactive)

***
Ask: // fetch GI50 given entry "Oc1c(Cl)c(Cl)c(O)c(CCNc2ccc3ncccc3c2)c1Cl"
Result: 3.47 µM (inactive)

Ask: // fetch GI50 given entry "O=[N+]([O-])/C(Cl)=C(/C(Cl)=C(Cl)Cl)N1CCOCC1"
Result: 3.18 µM (inactive)

Ask: // fetch GI50 given entry "CCOC(=O)CN1CCNCCN(CC(=O)OCC)CCNCC1"
Result: 80.5 µM (inactive)

Ask: // fetch GI50 given entry "COc1c(CC(C)=O)c2ccccc2n1C(C)=O"
Result: > 100 µM (inactive)

Ask: // fetch GI50 given entry "COc1ccc(SCc2cc(OC)ccc2OC)cc1"
Result: 4.24 µM (inactive)

Ask: // fetch GI50 given entry "CC1=NN(C(=O)c2ccc(Cl)cc2)C(=O)/C1=C/c1ccco1"
Result: > 100 µM (inactive)

Ask: // fetch GI50 given entry "N/C(=N\N=C\c1nc2ccccc2o1)c1cnccn1"
Result: > 100 µM (inactive)
